METHOD_DESCRIPTION: Inhibition of HIV1 reverse transcriptase M41L/D67N/K70R/T215Y/K219Q mutant-mediated viral DNA synthesis in human HOS-313 cells expressing HSV thymidine kinase assessed as luciferase activity treated 3 hrs before infection measured after 48 hrs by luminescence assay
Type: cell-based
ASSAY_CONDITIONS: Human immunodeficiency virus 1, HOS-313
MEASUREMENT_TYPE: pIC50
Value format note: pIC50 is -log10 of concentration (mol/L); just state the number.

### Prompt Quick one: pIC50 of Cc1cn([C@@H]2C[C@H](CO)[C@@H](O)C2)c(=O)[nH]c1=O ?
### Response 6.06
